organism: Bos taurus; experiment: Ratio of IC50 of drug to IC50 of colchicine for calf brain tubulin polymerization

- Structure: "COc1cc(C(=O)c2c[nH]c3c(OS(C)(=O)=O)c(OC)ccc23)cc(OC)c1OC"
  Ratio IC50: 2.7
- Structure: "COc1cc2c(C(=O)c3cc(OC)c(OC)c(OC)c3)cn(S(=O)(=O)c3ccccc3)c2cc1OS(C)(=O)=O"
  Ratio IC50: 18
- Structure: "COc1ccc(/C=C\\c2cc(OC)c(OC)c(OC)c2)cc1O"
  Ratio IC50: 0.7
- Structure: "COc1cc2c(C(=O)c3cc(OC)c(OC)c(OC)c3)c[nH]c2cc1O"
  Ratio IC50: 12
- Structure: "COc1cc2c(cc1OS(C)(=O)=O)c(C(=O)c1cc(OC)c(OC)c(OC)c1)cn2S(=O)(=O)c1ccccc1"
  Ratio IC50: 15
- Structure: "COc1ccc2c(C(=O)c3cc(OC)c(OC)c(OC)c3)c[nH]c2c1"
  Ratio IC50: 0.4

====

test system: EA.hy 926; assay: Induction of morphological changes in human EA.hy 926 cells assessed as rounding up after 2 hrs; type: functional
Property label: Activity (µM)

- Structure: "COc1cc2[nH]cc(C(=O)c3cc(OC)c(OC)c(OC)c3)c2cc1OS(C)(=O)=O"
  Measured value: 14.35
- Structure: "COc1cc2c(c(OC)c1OC)-c1ccc(OC)c(=O)cc1[C@@H](NC(C)=O)CC2"
  Measured value: 0.003
- Structure: "COc1ccc(/C=C\\c2cc(OC)c(OC)c(OC)c2)cc1O"
  Measured value: 0.008
- Structure: "COc1cc2c(C(=O)c3cc(OC)c(OC)c(OC)c3)c[nH]c2cc1O"
  Measured value: 8.74
- Structure: "COc1cc(C(=O)c2c[nH]c3c(OS(C)(=O)=O)c(OC)ccc23)cc(OC)c1OC"
  Measured value: 0.013
- Structure: "COc1ccc2c(C(=O)c3cc(OC)c(OC)c(OC)c3)c[nH]c2c1"
  Measured value: 0.007
- Structure: "COc1cc2c(C(=O)c3cc(OC)c(OC)c(OC)c3)cn(S(=O)(=O)c3ccccc3)c2cc1OS(C)(=O)=O"
  Measured value: 1.3
- Structure: "COc1cc2c(cc1OS(C)(=O)=O)c(C(=O)c1cc(OC)c(OC)c(OC)c1)cn2S(=O)(=O)c1ccccc1"
  Measured value: 10.86
- Structure: "COc1cc2c(C(=O)c3cc(OC)c(OC)c(OC)c3)c[nH]c2cc1OS(C)(=O)=O"
  Measured value: 28.71
